Assay: hepatitis C replication reporter changes, two-sided – Huh7 cells, luciferase reporter, HCV replication inhibitor project, primary screen (AID 1109);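 also: huh7 hepatoma cells harbouring a luciferase neomycin HCV replicon reporter; luciferase luminescence as measure of HCV replicon replication; test concentration not given here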
Conditions: Huh7 HCV replicon luciferase reporter, 48 h; higher = more signal
Record Satisfied whenever z-score is at -2 or higher; record Not satisfied when lower.

Completed entries (count: 5):
Molecule: Cc1ccc(S[C@]2(C(=O)O)CC(=O)N(Cc3ccccc3C(F)(F)F)[C@@H]2c2ccc(CO)cc2)cc1
Class label: Satisfied
--
Molecule: COC(=O)C(CC#Cc1ccc2c(c1)[C@]1(C(=O)N2)[C@H](c2ccc(OCCO)cc2)N2[C@H](c3ccccc3)[C@H](c3ccccc3)OC(=O)[C@H]2[C@@H]1C(=O)O)C(=O)OC
Class label: Satisfied
--
Molecule: CCCNC(=O)[C@@H]1c2ccccc2C(=O)N(CC23CC4CC(CC(C4)C2)C3)[C@H]1c1ccc(CO)cc1
Class label: Satisfied
--
Molecule: C/C=C/[C@@H](CCn1cc([C@H](O)c2ccccc2)nn1)[Si](C)(C)c1ccc(OC)cc1
Class label: Not satisfied
--
Molecule: COCCCNC(=O)[C@@]1(Cc2ccccc2I)c2ccccc2C(=O)N(Cc2ccccc2Cl)[C@H]1c1ccc(CO)cc1
Class label: Satisfied

Exercise: For this molecule, is measured z-score -2 or higher? "COC(=O)[C@@]1(Cc2ccccc2)[C@H]2c3cc(C(=O)N(C)C)n(Cc4ccc(O)c(OC)c4)c3C[C@H]2CN1C(=O)c1ccccc1"
Key: Not satisfied

Exercise: For this molecule, is measured z-score -2 or higher? CCCc1cc2c(n1Cc1ccc(OC)cc1)C(C)C1CN(C(=O)c3ccccc3)C(C)(C(=O)OC)C21 (stereo not given)
Key: Not satisfied

Exercise: For this molecule, is measured z-score -2 or higher? "Cc1ccc(-c2cccc(=O)o2)cc1"
Key: Satisfied

Exercise: For this molecule, is measured z-score -2 or higher? "COc1ccc([Si](C)(C)[C@@H]2[C@@H](CC(=O)N(CCO)Cc3ccccc3)O[C@]3(C(=O)N(Cc4ccc(N5CCOC5=O)cc4)c4ccccc43)[C@H]2C)cc1"
Key: Not satisfied

Exercise: For this molecule, is measured z-score -2 or higher? C=CC[C@@]1(C(=O)NCC(O)CO)N=C(c2ccc(OCCCO)cc2)O[C@@H]1c1ccccc1 (stereo not given in full)
Key: Satisfied

* * *

Test system: glycogen synthase kinase-3 (GSK3A per assay name; protocol says GSK3B)
Test: compounds binding glycogen synthase kinase-3 – biochemical, small-molecule microarray, 635 nm fluorescence, GSK3A, primary screen (AID 1103); also: the record names both GSK3A and GSK3B
Conditions: fluorescence 635 nm, higher = more signal
Quantity name: composite z-score
// return just the number, without any unit appended

Smiles string: COC(=O)[C@]1(Cc2ccccc2N=[N+]=[N-])N=C(c2ccc(OCCCO)cc2)O[C@@H]1c1ccccc1
Measurement: 0.196

Smiles string: CN(C)CCCN1C(=O)[C@@]2(Cc3ccccc31)c1ccccc1C(=O)N(Cc1ccccc1)[C@H]2c1ccc(CO)cc1
Measurement: 0.54

Smiles string: COc1ccc(CCNC(=O)[C@@H]2c3ccccc3C(=O)N(Cc3ccccc3C(F)(F)F)[C@H]2c2ccc(CO)cc2)cc1
Measurement: 0.013

Smiles string: COC(=O)[C@@]1(Cc2ccccc2)[C@H]2c3cc(C(=O)N(C)C)n(Cc4ccc(O)c(OC)c4)c3C[C@H]2CN1C(=O)c1ccccc1
Measurement: 0.255

Smiles string: CCCNC(=O)[C@@]1(Sc2ccc(C)cc2)CC(=O)N(Cc2ccccc2)[C@@H]1c1ccc(CO)cc1I
Measurement: 0.108

Exercise: Item under review: "COCCOC(=O)N1C(=O)[C@@]2(c3cc(C#CCNC(N)=O)ccc31)[C@H](C(=O)N1CCCCCCC1)[C@H]1C(=O)O[C@H](c3ccccc3)[C@H](c3ccccc3)N1[C@@H]2c1ccc(OCCO)cc1" . Reported composite z-score?
Key: 0.211

Exercise: Item under review: "C[C@@H]1ON(c2ccccc2)[C@H](c2ccccc2)[C@H]1C(=O)N1C(=O)OC[C@H]1Cc1ccccc1" . Reported composite z-score?
Key: 0.149

* * *

Biological target: Pro-neuregulin-1, membrane-bound isoform (Homo sapiens)
Assay: small molecules binding neuregulin-1 protein – biochemical, small-molecule microarray, fluorescence 635/667, psychiatric disease protein project, primary screen (AID 1075);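 also: score combines 667 nm spot fluorescence with signal to noise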
Settings: NRG1 binding, 635 nm fluorescence, higher = more signal
Record Y whenever composite z-score is at 0.9 or higher; record N when lower.

Molecule: CCCN1C(=O)[C@@H]2Cc3c([nH]c4ccccc34)[C@@H](c3cccc(O)c3)N2C1=O
Target of assay: Pro-neuregulin-1, membrane-bound isoform (Homo sapiens)
Class label: N
//
Molecule: COC(=O)[C@@]1(Cc2ccc(OC)cc2)[C@H]2c3cc(C(=O)N(C)C)n(Cc4cc(F)c(F)c(F)c4)c3C[C@H]2CN1C(=O)c1ccccc1
Target of assay: Pro-neuregulin-1, membrane-bound isoform (Homo sapiens)
Class label: Y
//
Molecule: Cc1ccc(S[C@]2(C(=O)O)CC(=O)N(Cc3ccccc3C(F)(F)F)[C@@H]2c2ccc(CO)cc2)cc1
Target of assay: Pro-neuregulin-1, membrane-bound isoform (Homo sapiens)
Class label: N

Exercise: For this molecule, is measured composite z-score 0.9 or higher? "C=CCOC(=O)[C@@H]1[C@H]2C(=O)O[C@H](c3ccccc3)[C@H](c3ccccc3)N2[C@H](c2ccc(OCCOC(=O)[C@@H]3C[C@@H]4C(=O)N5CCC[C@H]5C(=O)N4[C@@H]3c3cccc(OCCO)c3)cc2)[C@@]12C(=O)Nc1ccc(I)cc12"
Key: N

Exercise: For this molecule, is measured composite z-score 0.9 or higher? "NC(=O)NCC#Cc1ccc2c(c1)[C@]1(C(=O)N2)[C@H](c2ccc(OCCO)cc2)N2[C@H](c3ccccc3)[C@H](c3ccccc3)OC(=O)[C@H]2[C@@H]1C(=O)N1CCN(c2ncccn2)CC1"
Key: N

Exercise: For this molecule, is measured composite z-score 0.9 or higher? "Cc1ccc(S[C@]2(C(=O)O)CC(=O)N(C3CCCCC3)[C@@H]2c2ccc(CO)cc2)cc1"
Key: Y

Exercise: For this molecule, is measured composite z-score 0.9 or higher? "C=C(COC)C(=O)CC[C@H](OC(=O)c1ccccc1-c1ccccc1C(=O)O)c1ccc(OCCO)cc1"
Key: Y

Exercise: For this molecule, is measured composite z-score 0.9 or higher? "COC(=O)[C@@]1(Cc2ccc(OC)cc2)[C@H]2c3cc(C(=O)N(C)C)n(Cc4cc(C)n(C)n4)c3C[C@H]2CN1C(=O)c1ccccc1"
Key: Y

Exercise: For this molecule, is measured composite z-score 0.9 or higher? "O=C1O[C@H](c2ccccc2)[C@H](c2ccccc2)N2[C@H]1[C@@H](C(=O)NC[C@H](O)c1ccccc1)[C@]1(C(=O)Nc3ccccc31)[C@H]2c1ccccc1OCCO"
Key: N

* * *

Experiment: probe aShh binding to arrayed compounds – biochemical, biotinylated probe, 635/667 nm fluorescence, primary screen (AID 1114);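 also: probe is biotin-labelled aShh protein from a stem cell growth factor screen; measures binding of labelled protein to compounds printed on the slide; score merges feature fluorescence at 667 nm with signal-to-noise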
Details: small-molecule microarray, higher = more signal
Quantity name: composite z-score
// return just the number, without any unit appended

Consider the worked cases shown below.
Molecule: O=C(CS)NCCCCCNC(=O)[C@@H]1C[C@@H]2C(=O)N3CCC[C@H]3C(=O)N2[C@@H]1c1ccc(O)cc1
composite z-score: 0.499
//
Molecule: C=CCC(OC(C)=O)[C@@H]1[C@@H](N(Cc2ccc(-c3ccccc3)cc2)C(=O)c2cccc3ccccc23)c2cc(OCCCO)ccc2N1C(=O)c1ccc2ccccc2n1 (some centres undefined)
composite z-score: -0.2
//
Molecule: COC(=O)[C@H]1N=C(c2ccc(OCCCO)cc2)O[C@H]1c1ccccc1CN=[N+]=[N-]
composite z-score: 0.105

Proceeding to the next molecule to report its composite z-score.
Exercise: Item under review: "NC(=O)[C@@H]1[C@H]2C(=O)O[C@H](c3ccccc3)[C@H](c3ccccc3)N2[C@H](c2ccccc2OCCO)[C@@]12C(=O)Nc1ccc(C#CCCO)cc12" . Reported composite z-score?
Key: -0.221

* * *

Test: JC-1 mitochondrial signal, unstimulated adipocytes – cell-based, JC-1 fluorescence, 3T3-L1 adipocytes, 24 h, 100 nL compound, profiling panel (AID 1168); also: test concentration not given here
Settings: JC-1 mitochondrial fluorescence, higher = more signal, called active from +8 up or from −8 down
Record yes (1) whenever z-score is at 0.1 or higher; record no (0) when lower.

Completed entries (count: 5):
Compound: O=C1O[C@@H](c2ccccc2)[C@@H](c2ccccc2)N2[C@@H](c3ccc(O)cc3)[C@]3(C(=O)Nc4ccc(C#CC5(O)CCCCCC5)cc43)[C@@H](C(=O)N3CCN(c4ncccn4)CC3)[C@H]12
Class label: no (0)
--
Compound: O=C1CSC(c2cccc([N+](=O)[O-])c2)N1c1ccccc1 (centres undefined)
Class label: yes (1)
--
Compound: COC(=O)C(CC#Cc1ccc2c(c1)[C@]1(C(=O)N2)[C@H](c2ccc(O)cc2)N2[C@H](c3ccccc3)[C@H](c3ccccc3)OC(=O)[C@H]2[C@@H]1C(=O)O)C(=O)OC
Class label: no (0)
--
Compound: COc1ccc([Si](C)(C)[C@@H]2[C@@H](CCO)O[C@]3(C(=O)N(Cc4cccc(N5C(=O)COc6ccccc65)c4)c4ccccc43)[C@H]2C)cc1
Class label: yes (1)
--
Compound: O=C1NC(=O)C2C1C=CC(C(O)CCc1ccccc1)N2Nc1ccccn1 (centres undefined)
Class label: no (0)

Next:
Exercise: For this compound, is measured z-score 0.1 or higher? "COC(=O)c1c(CC[C@@H](CO)NC(=O)N[C@@H](C)Cn2cc(C3(O)CCCC3)nn2)oc(C(C)=O)c1C(=O)OC"
Key: yes (1)
